Biological target: 5-hydroxytryptamine receptor 1B (Homo sapiens, UniProt P28222)
Sequence (P28222 whole entry): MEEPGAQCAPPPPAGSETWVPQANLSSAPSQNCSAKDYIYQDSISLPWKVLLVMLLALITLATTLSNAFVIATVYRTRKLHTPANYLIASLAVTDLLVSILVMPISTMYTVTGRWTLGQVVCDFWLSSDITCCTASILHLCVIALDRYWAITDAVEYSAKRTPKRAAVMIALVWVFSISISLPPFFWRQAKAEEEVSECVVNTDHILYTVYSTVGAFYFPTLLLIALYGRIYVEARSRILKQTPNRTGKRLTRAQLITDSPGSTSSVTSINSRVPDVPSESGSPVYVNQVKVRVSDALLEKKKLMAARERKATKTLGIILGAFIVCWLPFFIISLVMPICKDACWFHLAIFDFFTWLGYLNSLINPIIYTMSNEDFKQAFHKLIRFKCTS
READOUT: Ki (nM)

[[record]]
molecule = "CCCN(CCCc1ccccc1)C1CCc2ccc3[nH]cc(C=O)c3c2C1 (stereo not drawn)"
endpoint_unit = "nM"
meas_value = 11

[[record]]
molecule = "CCCN(C)C1CCc2ccc3[nH]cc(C=O)c3c2C1 (stereo not drawn)"
endpoint_unit = "nM"
meas_value = 109

[[record]]
molecule = "CN(C)[C@H]1CCc2ccc3[nH]ccc3c2C1"
endpoint_unit = "nM"
meas_value = 1690


* * *

Target: D(3) dopamine receptor (Rattus norvegicus, UniProt P19020)
Sequence (P19020 whole entry): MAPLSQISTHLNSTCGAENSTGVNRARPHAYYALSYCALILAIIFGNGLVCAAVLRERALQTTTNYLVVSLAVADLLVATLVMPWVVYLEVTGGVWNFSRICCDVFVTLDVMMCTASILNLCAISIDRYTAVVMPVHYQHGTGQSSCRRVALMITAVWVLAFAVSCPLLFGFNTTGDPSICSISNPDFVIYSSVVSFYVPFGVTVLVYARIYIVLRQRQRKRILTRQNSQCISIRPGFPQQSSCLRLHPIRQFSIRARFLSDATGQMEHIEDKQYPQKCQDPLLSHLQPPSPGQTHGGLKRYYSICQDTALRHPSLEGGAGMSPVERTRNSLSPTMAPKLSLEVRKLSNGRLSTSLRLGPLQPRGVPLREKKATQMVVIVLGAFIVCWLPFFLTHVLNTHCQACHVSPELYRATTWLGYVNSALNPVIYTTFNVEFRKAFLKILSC
Test: In vitro binding affinity against cloned mammalian Dopamine receptor D3 expressed in CHO cells by, using [3H]-spiperone as radioligand
Format: cell-based
Conditions: read-out: Ki
pKi: −log10 of the molar value.
READOUT: pKi

[[record]]
molecule = "CCCNC1CCc2ccc3[nH]ccc3c2C1 (centres undefined)"
meas_value = 6.94

[[record]]
molecule = "CCCN(CC1CC1)C1CCc2ccc3[nH]cc(C=O)c3c2C1 (centres undefined)"
meas_value = 6.79

[[record]]
molecule = "C=CCN(CCC)C1CCc2ccc3[nH]ccc3c2C1 (centres undefined)"
meas_value = 7.11

[[record]]
molecule = "CCCN(CCCOc1cccc(Cl)c1)C1CCc2ccc3[nH]cc(C=O)c3c2C1 (centres undefined)"
meas_value = 6.80

